Target desc: T1, Human CD3eg linker (human)
T1 construct: Single-chain construct; also called recombinant human CD3
T1 chain: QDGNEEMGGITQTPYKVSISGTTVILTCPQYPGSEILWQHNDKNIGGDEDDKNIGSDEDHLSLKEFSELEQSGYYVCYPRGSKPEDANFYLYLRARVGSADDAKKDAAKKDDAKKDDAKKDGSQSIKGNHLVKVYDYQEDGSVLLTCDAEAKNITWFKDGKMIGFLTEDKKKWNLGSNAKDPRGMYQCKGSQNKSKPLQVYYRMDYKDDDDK
Protocol: SPR; fold vs parent H183/L072
Recorded endpoint: fold change of affinity (fold)
Quick reminder: number only, in fold, skip the unit.

{"Binder": "H183/L072 VL A25M (antibody, name in Kabat numbering, V domains shown) VH: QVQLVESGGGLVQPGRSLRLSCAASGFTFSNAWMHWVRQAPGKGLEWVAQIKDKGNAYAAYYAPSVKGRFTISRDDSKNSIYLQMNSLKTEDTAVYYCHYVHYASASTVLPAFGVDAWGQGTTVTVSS VL: DIVMTQSPLSLPVTPGEPASISCQMSQELVHMNRNTYLHWYQQKPGQAPRLLIYKVSNRFPGVPDRFSGSGSGTDFTLKISRVEAEDVGVYYCAQGTSVPFTFGQGTKLEIK", "fold change of affinity [fold]": 0}
{"Binder": "H183/L072 VL E27aT (antibody, name in Kabat numbering, V domains shown) VH: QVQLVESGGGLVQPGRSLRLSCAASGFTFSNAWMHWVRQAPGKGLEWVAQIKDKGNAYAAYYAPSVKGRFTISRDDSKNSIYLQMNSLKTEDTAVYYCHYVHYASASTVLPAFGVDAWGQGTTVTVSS VL: DIVMTQSPLSLPVTPGEPASISCQASQTLVHMNRNTYLHWYQQKPGQAPRLLIYKVSNRFPGVPDRFSGSGSGTDFTLKISRVEAEDVGVYYCAQGTSVPFTFGQGTKLEIK", "fold change of affinity [fold]": 1.3}

If you can, please state the reported fold change of affinity value of H183/L072 VL S93I (antibody, name in Kabat numbering, V domains shown) VH: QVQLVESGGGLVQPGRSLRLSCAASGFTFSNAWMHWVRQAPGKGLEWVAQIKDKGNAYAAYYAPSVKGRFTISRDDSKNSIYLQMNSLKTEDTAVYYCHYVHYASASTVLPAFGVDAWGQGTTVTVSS VL: DIVMTQSPLSLPVTPGEPASISCQASQELVHMNRNTYLHWYQQKPGQAPRLLIYKVSNRFPGVPDRFSGSGSGTDFTLKISRVEAEDVGVYYCAQGTIVPFTFGQGTKLEIK .
0.8

Data origin: patent US20210388087A1
